experiment: qHTS Assay for Lipid Storage Modulators in Drosophila S3 Cells; conditions: BODIPY lipid droplet fluorescence, 18-24 h, cells fed with added oleic acid; measured here: cell count max response;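 further: cells counted by Cell Tracker Red CMTPX staining in the red channel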
The whole screen tested about 320,000 compounds, of which about 2,100 (0.66%) were called active. About 53% were inconclusive and are not listed. The sample holds actives, similar compounds and a random draw of the others, so the mix is not that of the screen.

# molecule, cell number change [%]
data = [
    ("CC12CC3(C)CC(C)(C1)CC(C(=O)NCC(=O)O)(C2)C3", -16.9),
    ("Cc1ccc(C(=O)Nc2cccc(C(F)(F)F)c2)cc1Nc1ncnc2nc[nH]c12", -0.327),
    ("Cc1onc(-c2ccccc2Cl)c1C(=O)Oc1cc(N)n(S(=O)(=O)c2ccc(F)cc2)n1", -4.68),
    ("O=C(NCCCO)/C(=C\\c1cn(-c2ccccc2)nc1-c1cccnc1)NC(=O)c1ccccc1", 19.4),
    ("Nc1nc(/C=C/c2cccnc2)nc(-c2ccccc2O)n1", -9.25),
    ("CCc1ccc2oc(=O)cc(CN3CCN(Cc4ccccc4)CC3)c2c1", 4.49),
    ("O=C(COC(=O)COc1ccc2c(c1)CCC2)Nc1ccccc1", -5.42),
    ("Cc1ccc2c(CC(=O)OCc3cc(=O)n4c(n3)sc3ccccc34)coc2c1", -0.183),
    ("CC1CCCCN1C(=O)c1ccc(Br)o1 (stereo unspecified)", 0.829),
    ("CC12CC3(C)CC(C)(C1)CC(C(=O)NC(=S)N1CCCC1)(C2)C3", -0.792),
    ("Cc1ccc(C(=O)Nc2cccc(C(F)(F)F)c2)cc1NC(=O)c1nccnc1N", -18.4),
]

* * *

Experiment: qHTS Assay for Lipid Storage Modulators in Drosophila S3 Cells;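 further: cells counted by Cell Tracker Red CMTPX staining in the red channel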
Conditions: BODIPY lipid droplet fluorescence, 18-24 h, cells fed with added oleic acid; measured here: cell count max response
Excerpt: NIH Molecular Libraries Probe Production Centers Network [MLPCN] NIH Chemical Genomics Center [NCGC] […] Triacsin C (Sigma-Aldrich T-4540), an inhibitor of long-chain fatty acyl CoA synthetase that blocks synthesis of triglycerides, was used as a positive control for lipid under-storage. […] Fluorescence was detected by excitation of the fluorophores with a 488-nm laser on an Acumen Explorer (TTP Lab Tech). […] Cells were detected using channel 3 (575-640 nm) with 5-um width and 100-um depth filters. […]
Hit rate of the full screen: of about 320,000 compounds, about 2,100 (0.66%) were called active. Roughly 53% stayed inconclusive and do not appear here. The full list was thinned out, with actives kept by preference.

# compound, unitOfMeasurement, cell number change
rows = [
    ("CSc1cccc(CNC(=O)CC2C(=O)NCCN2CC(C)(C)C)c1 (stereo not given)", "%", 22),
    ("CCNc1nc(N)nc(-c2cc(Cl)ccc2OC)n1", "%", -11.6),
    ("COc1ccc(N=C2NC(=O)/C(=C/c3ccco3)S2)cc1", "%", 15.8),
    ("COC(=O)c1cc(NC(=O)CN2CCN(C(C)=O)CC2)cc(C(=O)OC)c1", "%", 15.4),
    ("Cc1ccc(C23CC4CC(CC(C(=O)OCC(=O)N(C)C)(C4)C2)C3)cc1", "%", 4.17),
    ("CCC(=O)Nc1ccc(/C=C(\\C(C)=O)C(=O)c2ccccc2)cc1", "%", -16.8),
    ("COCCN(C(=O)c1ccco1)c1nnc(-c2ccc(F)cc2)s1", "%", 4.04),
    ("CC(=O)N1CCc2cc(Br)cc(S(=O)(=O)NCCCN3CCCC(C)C3)c21 (stereo not given)", "%", -1.7),
    ("O=C(COc1ccc2c3c(c(=O)oc2c1)CCC3)N1CCN(c2ccccc2)CC1", "%", 28.4),
    ("O=C(C1=C[C@@H](c2coc3ccccc3c2=O)C[C@@H](OCCCCO)O1)N1CCN(Cc2ccc3c(c2)OCO3)CC1", "%", -4.69),
]
